Provenance of the data: patent US7166452B2

# Tested on: aminoketone asymmetric reductase
# test name: Substrate specificity and enzyme activity of purified enzyme (NADPH absorbance at 340 nm)
# Format: biochemical, Rhodococcus erythropolis
# study conditions: purified enzyme
parameter measured: enzyme acts on the compound (substrate specificity)

compound	reported result
CC(C(=O)c1ccccc1)N(C)C (centres unmarked) [1-2-dimethylaminopropiophenone]	acted on
CCC(=O)CN [1-amino-2-butanone]	acted on
CNC(C)C(=O)c1ccccc1 (centres unmarked) [1-2-methylaminopropiophenone]	acted on
